Test system: methicillin-resistant S. aureus (FPR3757)
procedure_summary: MIC against methicillin-resistant S. aureus
Format: cell-based, Staphylococcus aureus
experimental_context: Staphylococcus aureus, complete inhibition of observable growth, Mueller–Hinton broth
The entries below come with measured MIC values attached.

// below: answered molecules
Entry FC(F)(F)Oc1ccc2c(Nc3ccc(Cl)c(Cl)c3)cc(C(F)(F)F)nc2c1 , methicillin-resistant S. aureus (FPR3757) data, MIC value: 0.5 to 1 µg/mL

Tested system methicillin-resistant S. aureus (FPR3757); MIC recorded for CCc1ccc2c(O)cc(C(F)(F)F)nc2c1 was 320 to 640 µg/mL

The reported methicillin-resistant S. aureus (FPR3757) MIC of Fc1ccc2c(Nc3ccc(C(F)(F)F)cn3)cc(C(F)(F)F)nc2c1 is 0.5 to 2 µg/mL

Tested system methicillin-resistant S. aureus (FPR3757); MIC recorded for FC(F)(F)Oc1ccc2c(Nc3ccc(C(F)(F)F)cn3)cc(C(F)(F)F)nc2c1 was 0.5 to 1 µg/mL

Assay methicillin-resistant S. aureus (FPR3757), sample FC(F)(F)Oc1cccc(Nc2cc(C(F)(F)F)nc3cc(OC(F)(F)F)ccc23)c1 , MIC read: 0.5 to 1 µg/mL

methicillin-resistant S. aureus (FPR3757) assay, molecule FC(F)(F)c1ccc2c(Nc3cccc(Cl)c3)cc(C(F)(F)F)nc2c1 , recorded MIC = 0.125 to 0.25 µg/mL

***
// MIC (methicillin-resistant S. aureus (FPR3757)) for CSc1cccc(Nc2cc(C(F)(F)F)nc3cc(C(F)(F)F)ccc23)c1 = 0.25 to 0.5 µg/mL

Tested on methicillin-resistant S. aureus (FPR3757), the item FC(F)(F)c1ccc2c(Nc3nccs3)cc(C(F)(F)F)nc2c1 showed MIC equal to 1 to 2 µg/mL

FC(F)(F)c1ccc(Nc2cc(N3CCNCC3)c3ccc(C(F)(F)F)cc3n2)nc1 on methicillin-resistant S. aureus (FPR3757) gives MIC = 4 to 8 µg/mL

Let me check: Oc1cc(C(F)(F)F)nc2cc(OC(F)(F)F)ccc12 , system methicillin-resistant S. aureus (FPR3757), measured MIC is 4 to 8 µg/mL

Where these numbers come from: paper PMC9826610
